- TARGET: Beta-lactamase (Pseudomonas aeruginosa, UniProt Q79MP6)
- Sequence (Q79MP6 whole entry): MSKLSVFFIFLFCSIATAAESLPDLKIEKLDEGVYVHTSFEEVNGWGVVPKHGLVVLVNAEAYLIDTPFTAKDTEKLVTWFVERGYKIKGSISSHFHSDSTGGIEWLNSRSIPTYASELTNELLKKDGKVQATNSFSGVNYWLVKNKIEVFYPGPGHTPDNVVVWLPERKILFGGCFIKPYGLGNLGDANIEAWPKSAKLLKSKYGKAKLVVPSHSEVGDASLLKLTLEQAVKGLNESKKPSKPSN
- PROTOCOL SUMMARY: Inhibition of Pseudomonas aeruginosa IMP1 metallo-beta-lactamase
Give pIC50 for every item shown.
One number for each entry, as −log10 of the molar value.

COc1ccc(CC(=O)N[C@H](C)C(=O)S[C@@H](C)Cc2ccc(-c3ccccc3)cc2)cc1 : 4.92
O=C(O)[C@H](S)Cc1ccccc1 : 7.07
CCC(=O)N[C@H](C)C(=O)S[C@@H](C)Cc1ccc(-c2ccccc2)cc1 : 5.02
CC(C)CC(=O)N[C@H](C)C(=O)S[C@@H](C)Cc1ccc(-c2ccccc2)cc1 : 5.28
CC(=O)S[C@H](Cc1ccc(-c2ccccc2)cc1)C(=O)O : 7.08
C[C@@H](Cc1ccc(-c2ccccc2)cc1)SC(=O)[C@@H](C)NC(=O)Cc1cccc2ccccc12 : 4.92
O=C(O)[C@@H](S)Cc1ccc2oc3ccccc3c2c1 : 6.60
C[C@@H](Cc1ccc(-c2ccccc2)cc1)SC(=O)[C@@H](C)NC(=O)Cc1ccccc1 : 5.24
C[C@@H](Cc1ccc(-c2ccccc2)cc1)SC(=O)[C@@H](C)NC(=O)CCc1ccccc1 : 4.82

Which value of pIC50 has been reported for "CCCC(=O)N[C@H](C)C(=O)S[C@@H](C)Cc1ccc(-c2ccccc2)cc1" in the records? 5.03

Where these numbers come from: ChEMBL document CHEMBL3044597
